The measured values listed here are drawn from patent US12325709B2.

- tgt: human CB1 receptor (Homo sapiens, UniProt P21554)
- Sequence (P21554 whole entry): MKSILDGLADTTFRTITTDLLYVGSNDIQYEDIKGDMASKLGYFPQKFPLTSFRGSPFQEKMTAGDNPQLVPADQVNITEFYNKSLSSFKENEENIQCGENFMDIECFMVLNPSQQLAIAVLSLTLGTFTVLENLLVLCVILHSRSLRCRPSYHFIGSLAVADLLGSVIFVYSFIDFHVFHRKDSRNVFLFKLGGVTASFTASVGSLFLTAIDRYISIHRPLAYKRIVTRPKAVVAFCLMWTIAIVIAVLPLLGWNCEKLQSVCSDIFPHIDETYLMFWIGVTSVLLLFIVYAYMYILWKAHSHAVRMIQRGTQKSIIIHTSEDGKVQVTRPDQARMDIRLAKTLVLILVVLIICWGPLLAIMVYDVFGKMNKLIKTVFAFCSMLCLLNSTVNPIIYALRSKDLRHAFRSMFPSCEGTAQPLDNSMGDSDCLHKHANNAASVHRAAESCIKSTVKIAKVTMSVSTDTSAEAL
pIC50: −log10 of the molar value.
endpoint label: pIC50

// known answers, use as guide
In [3]: df
Out[3]:
                                   compound                                       tgt  recorded_value
0  C=C(C)[C@@H]1CCC(C)=C[C@H]1c1c(O)cc(CCCCC)c(C(=O)NC)c1O  human CB1 receptor (Homo sapiens, UniProt P21554)    5.30 to 6.00
1  CCCCCc1cc(O)c(C2C=C(C)CCC2)c(O)c1C(=O)N1CCN(S(C)(=O)=O)CC1 (stereo not shown) [Compound 37c]  human CB1 receptor (Homo sapiens, UniProt P21554)          < 5.30
2  CCCCCc1cc(O)c(C2C=C(C)CCC2)c(O)c1C(=O)NC (stereo not shown)  human CB1 receptor (Homo sapiens, UniProt P21554)          < 5.30

Looking for the measured pIC50 of CCCCCc1cc(O)c(C2C=C(C)CCC2)c(O)c1C(=O)NCc1cccnc1 (stereo not shown) [Compound 15c] , can you help?
5.30 to 6.00
